Listed here: items and their measured composite z-score.
tested on: Chordin-like protein 2 (CHRDL2); assay: CHRDL2 small-molecule binders, primary screen, biochemical, small-molecule microarray, 635 nm fluorescence (AID 1126); details: small-molecule microarray binding, fluorescence 635 nm; higher = more signal;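 note: printed compound slides probed with Chrdl2 protein at 4 µg/mL for 1 h at 4 C; score merges 667 nm emission intensity with signal to noise over three replicate slides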

Worked cases, answers included:
COCCOC(=O)N1C(=O)[C@@]2(c3ccccc31)[C@H](C(=O)Nc1nc3ccccc3s1)[C@H]1C(=O)O[C@H](c3ccccc3)[C@H](c3ccccc3)N1[C@@H]2c1ccc(O)cc1
0.318
Cc1ccc(N2C(=O)c3ccccc3[C@](C)(C(=O)NCC(F)(F)F)[C@@H]2c2ccc(CO)cc2)nc1
-1.8
CC(=O)NCCCC[C@@H]1NC(=O)[C@@H]2C[C@H](C(=O)O)[C@H](c3cccc(OCCO)c3)N2C1=O
1.31
Cc1ccc(S[C@]2(C(=O)NCC(C)C)CC(=O)N(C(C)C)[C@@H]2c2ccc(CO)cc2)cc1
-0.589
CC1CC/C=C\[C@H]2OC34C=CCN(C(C)C)C(=O)[C@H]3N(C(CO)C(C)C)C(=O)[C@@H]4C2C(=O)O1 (stereo partly specified)
-1.36

As a next step, examine the molecule that follows.
[Q] Quick check: composite z-score of COc1ccc(/C=C/C(=O)c2cccc(OCC(=O)OC(C)(C)C)c2)cc1 ?
[A] -0.55

----------
experiment: anti-His antibody binders, primary screen, artefact control for SMM control protein annotation, biochemical, small-molecule microarray, 635 nm fluorescence (AID 1128); conditions: anti-His Alexa647 antibody binding, higher = more signal;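 note: score merges feature fluorescence with signal-to-noise for each printed compound spot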
Returns one of y or n; y when composite z-score is >= 0.3.

A selection of reference data follows.
C=C(COC)/C(=C/C[C@H](OC(C)=O)c1cccc(OCCO)c1)c1cc(C(=O)OC)ccc1OC
y
COCCOC(=O)N1C(=O)[C@@]2(c3ccccc31)[C@H](C(=O)Nc1nc3ccccc3s1)[C@H]1C(=O)O[C@H](c3ccccc3)[C@H](c3ccccc3)N1[C@@H]2c1ccc(O)cc1
y

[Q] Determine whether measured composite z-score meets or exceeds 0.3 for CC(C)(C)OC(=O)CC[C@]1(C(=O)NCc2ccccc2)COC(c2ccc(OCCCO)cc2)=N1
[A] n

[Q] Determine whether measured composite z-score meets or exceeds 0.3 for O=C(O)[C@H]1C[C@H]2C(=O)NCC(=O)N2[C@H]1c1cccc(OCCO)c1
[A] y

[Q] Determine whether measured composite z-score meets or exceeds 0.3 for CC(=O)OC(C/C=C\B1OC(C)(C)C(C)(C)O1)c1ccccc1 (stereo not drawn)
[A] n

[Q] Determine whether measured composite z-score meets or exceeds 0.3 for C=C(COC)C(=O)CC[C@H](OC(=O)c1cccnc1)c1cccc(OCCO)c1
[A] n

[Q] Determine whether measured composite z-score meets or exceeds 0.3 for [N-]=[N+]=NCc1ccccc1C[C@]1(C(=O)NCc2ccccc2)N=C(c2ccc(OCCCO)cc2)O[C@H]1c1ccccc1
[A] y

[Q] Determine whether measured composite z-score meets or exceeds 0.3 for O=c1n(-c2ccccc2)c(=O)n2n1CC(COc1ccccc1)=C1[C@@H](CCc3ccccc3)OB(O)C[C@@H]12
[A] y

----------
assay: small-molecule microarray binders of probe aLefty2, primary screen, biochemical, biotinylated probe, 635/667 nm fluorescence (AID 1094); conditions: higher = more signal;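 note: score merges spot fluorescence near 667 nm with spot signal-to-noise ratio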
Returns one of 1.0 or 0.0; 1.0 when composite z-score is >= 0.06.

A selection of reference data follows.
Cc1ccc(N2C(=O)c3ccccc3[C@](C)(C(=O)NCC(F)(F)F)[C@@H]2c2ccc(CO)cc2)nc1
0.0
O=C1c2ccccc2[C@](Cc2ccccc2I)(C(=O)O)[C@H](c2ccc(CO)cc2)N1Cc1ccccc1Cl
1.0
CO[C@H]1O[C@H](CO)[C@@H](OC(=O)Nc2ccccc2)[C@H](OC(=O)Nc2ccccc2-c2ccccc2)[C@@H]1OC(=O)Nc1ccccc1-c1ccccc1
1.0

Then there is this compound:
[Q] Determine whether measured composite z-score meets or exceeds 0.06 for COCCOC(=O)N1C(=O)[C@@]2(c3cc(C#CCNC(N)=O)ccc31)[C@H](c1ccccc1OCCO)N1[C@H](c3ccccc3)[C@H](c3ccccc3)OC(=O)[C@H]1[C@@H]2C(=O)Nc1nc2ccccc2s1
[A] 1.0
